These measurements were taken from PubChem BioAssay (EPA / NIEHS).

Experiment: CCTE_Simmons_MITO_inhib_resp_rate: CCTE's HepG2 Seahorse XF Respirometric Screening Assay at Inhibited Respiratory State [full ETC block], Simmons Lab (AID 2284006)
Conditions: actives raise or lower the signal
Active and inactive are the calls of the source. The calls were made as follows: active = hit-call score of the fitted dose curve at least 0.9, where 1 is the maximum; inactive = score below 0.9.
VALUE_TYPE: AC50

// known answers, use as guide
[
  {
    "COMPOUND": "Oc1ccccc1-c1ccccc1",
    "AC50": "inactive"
  },
  {
    "COMPOUND": "O=C(O)COc1nc(Cl)c(Cl)cc1Cl",
    "AC50": "inactive"
  },
  {
    "COMPOUND": "Cc1ccc(-c2c(Cl)nc(C#N)n2S(=O)(=O)N(C)C)cc1",
    "AC50": "inactive"
  },
  {
    "COMPOUND": "COc1nc(NC(C)C)nc(NC(C)C)n1",
    "AC50": "inactive"
  },
  {
    "COMPOUND": "C#CCOS(=O)OC1CCCCC1Oc1ccc(C(C)(C)C)cc1 (configuration not stated)",
    "AC50": "inactive"
  },
  {
    "COMPOUND": "O=C(Nc1ccccc1)Nc1ccnc(Cl)c1",
    "AC50": "inactive"
  }
]

Give the measured AC50 for CC1COC(Cn2cncn2)(c2ccc(Oc3ccc(Cl)cc3)cc2Cl)O1 (configuration not stated)
6.05 µM (active)

###

Test: APR_HepG2_P-H2AX_24hr: Apredica 24-hour HepG2 Assay for H2AX Phosphorylation (AID 2282920)
Conditions: high-content imaging, actives raise or lower the signal
Activity calls are given as the source filed them. Rule for the calls: active = hit-call score of the fitted dose curve at least 0.9, where 1 is the maximum; inactive = score below 0.9.
Return exactly one item of active, inactive

Which result was noted for this compound in the test: `Cc1cc(Cl)ccc1OCC(=O)O`
inactive

Which result was noted for this compound in the test: CC(Oc1ccc(Cl)cc1Cl)C(=O)O (configuration not stated)
inactive

Which result was noted for this compound in the test: CCOC(=O)C(Cl)Cc1cc(-n2nc(C)n(C(F)F)c2=O)c(F)cc1Cl (configuration not stated)
inactive

Which result was noted for this compound in the test: CCOC(=O)CC(SP(=S)(OC)OC)C(=O)OCC (configuration not stated)
inactive

Which result was noted for this compound in the test: `O=C(O)c1nc(Cl)ccc1Cl`
inactive

Which result was noted for this compound in the test: `CCNc1nc(Cl)nc(NC(C)C)n1`
inactive

Which result was noted for this compound in the test: N#CC(CCc1ccc(Cl)cc1)(Cn1cncn1)c1ccccc1 (configuration not stated)
active

###

Target: D(1A) dopamine receptor (Homo sapiens) (UniProt P21728)
Sequence (P21728 whole entry, looked up): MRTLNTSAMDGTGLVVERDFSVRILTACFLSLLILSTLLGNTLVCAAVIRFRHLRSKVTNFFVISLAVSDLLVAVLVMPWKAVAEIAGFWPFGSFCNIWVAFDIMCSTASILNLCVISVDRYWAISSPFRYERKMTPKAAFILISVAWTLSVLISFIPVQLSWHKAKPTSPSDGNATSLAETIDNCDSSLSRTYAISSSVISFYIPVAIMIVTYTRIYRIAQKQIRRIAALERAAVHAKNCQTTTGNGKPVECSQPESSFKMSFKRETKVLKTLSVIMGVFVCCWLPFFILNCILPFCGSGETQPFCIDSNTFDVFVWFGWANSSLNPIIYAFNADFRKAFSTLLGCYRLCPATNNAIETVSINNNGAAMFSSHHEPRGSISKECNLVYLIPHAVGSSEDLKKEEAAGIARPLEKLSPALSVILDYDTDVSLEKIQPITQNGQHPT
Test: NVS_GPCR_hDRD1: NovaScreen (NVS) G Protein-Coupled Receptor Assay for human Dopamine Receptor D1 (DRD1) (AID 2283269)
Protocol: NVS_GPCR_hDRD1 is a biochemical, single-readout assay that uses extracted gene-proteins from HEK293 in a cell-free assay. Measurements were taken 1 hour after chemical dosing in a 96-well plate.NVS_GPCR_hDRD1 is one of one assay component(s) measured or calculated from the NVS_GPCR_hDRD1 assay. […] This assay endpoint, NVS_GPCR_hDRD1, was analyzed in the positive analysis fitting direction relative to DMSO as the negative control and baseline of activity. […]
Results filed as inconclusive are left out. Calls of active or inactive are those of the source. How the source made its calls: active means hit-call score of the fitted dose curve at least 0.9, where 1 is the maximum; inconclusive means response in the unintended direction; inactive means score below 0.9.
Return exactly one item of true (1) for active, false (0) for inactive

Which result was noted for this compound in the test: `CN(C)C(=S)SSC(=S)N(C)C`
true (1)

Which result was noted for this compound in the test: `C=CCC1=C(C)[C@@H](OC(=O)[C@@H]2[C@@H](C=C(C)C)C2(C)C)CC1=O`
true (1)

Which result was noted for this compound in the test: `CO/C=C(/C(=O)OC)c1ccccc1Oc1cc(Oc2ccccc2C#N)ncn1`
false (0)

Which result was noted for this compound in the test: C#CCOS(=O)OC1CCCCC1Oc1ccc(C(C)(C)C)cc1 (configuration not stated)
true (1)

Which result was noted for this compound in the test: CC1COC(Cn2cncn2)(c2ccc(Oc3ccc(Cl)cc3)cc2Cl)O1 (configuration not stated)
true (1)

Which result was noted for this compound in the test: `O=C(Nc1ccccc1)Nc1ccnc(Cl)c1`
true (1)

Which result was noted for this compound in the test: `COP(=S)(OC)Oc1nc(Cl)c(Cl)cc1Cl`
true (1)
